B1: glmS ribozyme (parent)
chain: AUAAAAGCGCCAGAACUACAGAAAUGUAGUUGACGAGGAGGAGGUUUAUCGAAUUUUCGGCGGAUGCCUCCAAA

Variants of: B1
assay-text: self-cleavage kobs at 640 uM GlcN6P; higher = faster cleavage; RNA array
conditions: with glucosamine-6-phosphate
Variants at the floor of the assay were thinned out.
assay-readout: self-cleavage kobs at 640 uM GlcN6P

Query: Name the recorded self-cleavage kobs at 640 uM GlcN6P of the item A6G G59A A64U in your answer.
Result: < 1e-05 s⁻¹

Query: Give the reported value of self-cleavage kobs at 640 uM GlcN6P for this record: A48G U49C G60A
Result: < 1e-05 s⁻¹

Query: Return self-cleavage kobs at 640 uM GlcN6P for the following variant: C16G G35A
Result: < 1e-05 s⁻¹

Query: For the variant U45A A53G C71U , give its measured self-cleavage kobs at 640 uM GlcN6P value.
Result: 0.00623 s⁻¹

Query: Identify self-cleavage kobs at 640 uM GlcN6P associated with the variant C10G G13A G43A C50U
Result: < 1e-05 s⁻¹

Query: Identify self-cleavage kobs at 640 uM GlcN6P associated with the variant G40U G44U C68U
Result: < 1e-05 s⁻¹

Query: Retrieve self-cleavage kobs at 640 uM GlcN6P measured for C11A U46G C61G and print it.
Result: < 1e-05 s⁻¹

Query: Recall and state the measured self-cleavage kobs at 640 uM GlcN6P for A12U A14C .
Result: 0.00117 s⁻¹

Query: Note self-cleavage kobs at 640 uM GlcN6P for the variant shown: A42G G43A
Result: 5.32e-05 s⁻¹
